Cited source: PubChem BioAssay (NCI)

- Test system: NCI-H23 lung
- Assay notes: NCI tumour cell line growth inhibition, 48 h
Label not fulfilled if TGI falls below 50 µM; label fulfilled in every other case.

Take a look at these entries with their results.
compound=O=C1c2ccccc2C(=O)N1/N=C1/SC(=Nc2ccccc2)C(=Nc2ccccc2)N1c1ccccc1 tested_on="NCI-H23 lung" cat=fulfilled
compound="CC(C)(C)[Si](C)(C)OCC1OC(n2cnc3c(N)ncnc32)C2OC(=S)OC12 (centres undefined)" tested_on="NCI-H23 lung" cat=fulfilled
compound=Cc1c2cnccc2c(C)c2c1c1ccccc1n2CCOC(=O)c1ccccc1 tested_on="NCI-H23 lung" cat=fulfilled
compound=COc1ccc(-c2cc(N3CCN(c4ccc(Cl)cc4)CC3)c(C#N)c(=O)o2)cc1 tested_on="NCI-H23 lung" cat=fulfilled
compound=CNC(=O)Oc1cc(C(C)C)ccc1Sc1ccc(C(C)C)cc1OC(=O)NC tested_on="NCI-H23 lung" cat="not fulfilled"

Incoming: Answer whether TGI of COc1cc2cc(NCc3cccc(Cl)c3)nc(C)c2cc1OC is greater than or equal to 50 µM.
Outgoing: not fulfilled

Incoming: Answer whether TGI of Nc1c(C(=O)Nc2cccc(Cl)c2)sc2nc3c(cc12)C(=O)CCC3 is greater than or equal to 50 µM.
Outgoing: fulfilled

Incoming: Answer whether TGI of O=C(O)/C=C\C(=O)Nc1ccc2c(c1)-c1ccccc1C2 is greater than or equal to 50 µM.
Outgoing: fulfilled

---

- Test system: HOP-62 NSCLC
- Assay notes: NCI tumour cell line growth inhibition, 48 h
Let's look at some molecules and their measured TGI.

molecule=NC(N)=N/N=C\c1c(-c2cccc([N+](=O)[O-])c2)nc2sccn12 tested_on="HOP-62 NSCLC" measurement_type=TGI test_value="> 100 µM"
molecule="CCC(C)N1CN(c2ccccc2)C2(CCN(CC3COc4ccccc4O3)CC2)C1=O (stereo unspecified)" tested_on="HOP-62 NSCLC" measurement_type=TGI test_value="41.7 µM"

Now let's try a different one.
Incoming: State, in one line, measured TGI of Fc1ccc(Nc2nc(Cl)c3[nH]cnc3n2)cc1Cl
Outgoing: > 100 µM

---

- Tested on: SK-OV-3 ovarian
- Assay notes: NCI tumour cell line growth inhibition, 48 h
Measurement type: TGI

Solved entries (count: 5):
compound=Sc1cccc2cccnc12 tested_on="SK-OV-3 ovarian" measurement_type=TGI test_value="13.8 µM"
compound=Cc1nnc2n1N=C(c1cc(F)c(Cl)cc1Cl)/C(=C/c1ccc(-c3ccc([N+](=O)[O-])cc3)o1)S2 tested_on="SK-OV-3 ovarian" measurement_type=TGI test_value="> 100 µM"
compound=O=C(N/N=C/c1ccc(Cl)cc1)c1ccc(NC(=O)c2ccccn2)cc1 tested_on="SK-OV-3 ovarian" measurement_type=TGI test_value="> 100 µM"
compound="COC(=O)/C=C1\\SC2(OC1=Nc1ccccc1)C1CC3CC(C1)CC2C3 (centres undefined)" tested_on="SK-OV-3 ovarian" measurement_type=TGI test_value="> 100 µM"
compound=O=C(CCc1nnc2s/c(=C\c3ccc([N+](=O)[O-])cc3)c(=O)n12)Nc1ccc(Cl)c(Cl)c1 tested_on="SK-OV-3 ovarian" measurement_type=TGI test_value="> 100 µM"

Incoming: Give TGI; test system SK-OV-3 ovarian; compound O=C1NC(=O)C(c2c[nH]c3ccccc23)=C1c1c[nH]c2ccccc12
Outgoing: > 25 µM

---

- System: MDA-MB-231 breast
- Assay notes: NCI tumour cell line growth inhibition, 48 h; in the data active means GI50 below about 0.43 µM; inactive means the rest
Entry note: the call must match one of active, inactive

Take a look at these entries with their results.
chem_smiles=Cn1ncnc1[C@@H]1c2n[nH]c(=O)c3cc(F)cc(c23)N[C@H]1c1ccc(F)cc1 tested_on="MDA-MB-231 breast" cat=inactive
chem_smiles=ClC1=C(Cl)C(Cl)(C2(Cl)C(Cl)=C(Cl)C(Cl)=C2Cl)C(Cl)=C1Cl tested_on="MDA-MB-231 breast" cat=active
chem_smiles=CN1CCN(Cc2ccc(NC(=O)c3cncc(C#Cc4cnc(N)c5ncccc45)c3)cc2C(F)(F)F)CC1 tested_on="MDA-MB-231 breast" cat=active
chem_smiles=CCN1CCN(CCC(=O)Nc2cccc(-n3cc(-c4ccncc4)c(-c4ccc(Cl)c(OC)c4)n3)c2)CC1 tested_on="MDA-MB-231 breast" cat=inactive
chem_smiles=COC(=O)[C@@H](C)C[C@H](Cc1ccccc1)NC(=O)c1nc([C@@H](C[C@H](C(C)C)N(C)C(=O)[C@@H](NC(=O)[C@H]2C[C@H](O)CCN2C)C(C)C)OC(C)=O)sc1C(C)C tested_on="MDA-MB-231 breast" cat=active
chem_smiles=Cc1c(Cl)cccc1C(=O)Nc1nc2c(s1)CN(C(=O)Nc1cccc(C(F)(F)F)c1)CC2 tested_on="MDA-MB-231 breast" cat=inactive

Incoming: # outcome recorded in this test, key = O=C(N/N=C/c1ccc(Cl)cc1)c1ccc(NC(=O)c2ccccn2)cc1
Outgoing: inactive

---

- Tested on: SF-268 CNS
- Assay notes: NCI tumour cell line growth inhibition, 48 h; in the data active = GI50 below about 0.43 µM; inactive = the rest
Entry note: the call must match one of active, inactive

Take a look at these entries with their results.
compound=O=C1C=C(Nc2ccccc2)c2ccccc2C1=O tested_on="SF-268 CNS" cat=inactive
compound=O=c1[nH]c2ccccc2n1C1CCNCC1 tested_on="SF-268 CNS" cat=inactive

Incoming: # outcome recorded in this test, key = CCN(Cc1ccc(OC)cc1)c1ccc(CO)c(Cl)c1
Outgoing: inactive

Incoming: # outcome recorded in this test, key = CCCCn1c(=O)[nH]c(N)c([C@@H]2c3c([nH]c(=O)n(CCCC)c3=O)Oc3ccc4ccccc4c32)c1=O
Outgoing: inactive

Incoming: # outcome recorded in this test, key = CCOC(=O)c1noc2c1CCc1c-2cn(Cc2ccc(OC)cc2)c1-c1cc(OC)c(OC)c(OC)c1
Outgoing: inactive

Incoming: # outcome recorded in this test, key = CC(C)=CCc1cc2c(cc1O)C1=C(C(=O)C3=C(NCCS3(=O)=O)C1=O)C(C=C(C)C)O2 (stereo not drawn)
Outgoing: inactive

Incoming: # outcome recorded in this test, key = CC(=O)/C(=C\c1ccc(Cl)cc1)c1ccccc1
Outgoing: active

Incoming: # outcome recorded in this test, key = COc1cccc2c1nc(C(F)F)n2-c1nc(-c2ccc(NS(=O)(=O)CCN(C)C)cc2)nc(N2CCOCC2)n1
Outgoing: active

Incoming: # outcome recorded in this test, key = N#CCCNc1nonc1-c1nc2ccccc2n1CC(=O)c1ccc(N)cc1
Outgoing: active

Incoming: # outcome recorded in this test, key = COc1cc(/C=C/C(=O)c2cccc(-n3cc(-c4ccccc4)[nH]c3=O)c2)cc(OC)c1OC
Outgoing: inactive

Incoming: # outcome recorded in this test, key = CCC(=C(c1ccc(OCCN2CCCCC2)cc1)c1ccc(OCCN2CCCCC2)cc1)c1ccc(Cl)cc1
Outgoing: inactive

Incoming: # outcome recorded in this test, key = O=C(NCc1cn(Cc2cccc(Oc3ccccc3)c2)nn1)c1cccnc1Nc1ccc(F)cc1
Outgoing: inactive

Incoming: # outcome recorded in this test, key = C=CCc1cccc(C=O)c1O
Outgoing: inactive

Incoming: # outcome recorded in this test, key = Cn1cc(C2=C(c3ccsc3)C(=O)NC2=O)c2ccccc21
Outgoing: inactive

Incoming: # outcome recorded in this test, key = CC1(C)N=C(N)N=C(N)N1c1ccc(OCCCNC(=O)Nc2ccc(S(=O)(=O)F)cc2)c(Cl)c1
Outgoing: active

Incoming: # outcome recorded in this test, key = Cc1c(Cl)cccc1C(=O)Nc1nc2c(s1)CN(C(=O)Nc1cccc(C(F)(F)F)c1)CC2
Outgoing: inactive

Incoming: # outcome recorded in this test, key = O=C(O)c1ccc(N(/C=C/C(=O)C(F)(F)F)Cc2ccc(Cl)cc2)cc1
Outgoing: inactive

Incoming: # outcome recorded in this test, key = Sc1cccc2cccnc12
Outgoing: inactive

---

Let's look at some compounds and their measured TGI.
- Tested on: HOP-62 NSCLC
- Assay notes: NCI tumour cell line growth inhibition, 48 h

Incoming: State, in one line, measured TGI of O=C(N/N=C/c1ccc(Cl)cc1)c1ccc(NC(=O)c2ccccn2)cc1
Outgoing: 91.3 µM

Incoming: State, in one line, measured TGI of CCN(CC)CC(=O)NC1c2ccccc2Oc2ccccc21
Outgoing: > 100 µM

Incoming: State, in one line, measured TGI of COc1ccc(C(=O)C(C(=O)CCC(=O)Nc2ccc(Cl)c(Cl)c2)c2ccc(OC)cc2)cc1 (stereo not given)
Outgoing: > 100 µM

Incoming: State, in one line, measured TGI of COCN1C(=O)[C@@H]2CCCN2C(=O)c2cc(OC)c(Cc3ccccc3)cc21
Outgoing: > 100 µM

Incoming: State, in one line, measured TGI of O=C(c1ccc2ccccc2c1)C1(I)S(=O)(=O)OCCOS1(=O)=O
Outgoing: > 100 µM

Incoming: State, in one line, measured TGI of O=C(O)/C=C\C(=O)Nc1ccc2c(c1)-c1ccccc1C2
Outgoing: > 100 µM

Incoming: State, in one line, measured TGI of ClC1=C(Cl)C(Cl)(C2(Cl)C(Cl)=C(Cl)C(Cl)=C2Cl)C(Cl)=C1Cl
Outgoing: 4.56 µM

Incoming: State, in one line, measured TGI of C[C@@H]1CN2[C@H]3[C@@H]1CC[C@]31CCC(=O)O[C@]1(C)[C@H]1CC[C@H]3CCC=C3[C@@H]12
Outgoing: > 30 µM

Incoming: State, in one line, measured TGI of CC(C#N)(c1ccccc1)N(CCc1ccccc1)C(=O)Oc1ccccc1 (stereo not given)
Outgoing: > 100 µM

Incoming: State, in one line, measured TGI of CCOC(=O)CC1=N/C(=N/C(=N)N[N+](=O)[O-])SC1
Outgoing: > 100 µM
